tested on: sea lice (L. salmonis); experiment: In-feed treatment of sea lice infested salmon: efficacy; type: in vivo, Lepeophtheirus salmonis on Atlantic salmon; settings: dose 10 mg/kg/day in feed for 7 days; adult sea lice; lice examined ten days after end of treatment

{"columns": ["chemical-smiles", "Reduction of total sea lice, %"],
 "data": [
  ["CN/C(=N\\[N+](=O)[O-])NCc1cnc(Cl)s1", 99],
  ["C/C(=N\\C#N)N(C)Cc1ccc(Cl)nc1", 85],
  ["CCN(Cc1ccc(Cl)nc1)/C(=C/[N+](=O)[O-])NC", 89],
  ["O=[N+]([O-])NC1=NCCN1Cc1ccc(Cl)nc1", 81]
]}
